test system: CT26; experiment: Antiproliferative activity against […] cells assessed as cell viability incubated for 48 hrs by MTT assay; assay type: functional; settings: Mus musculus
Record form. Attribute: log10 GI50. Fill in for each entry.
Values below are the log10 of the recorded GI50, with µM as the unit.

According to the records, this compound Cn1cc(-c2ccc(-c3cncc(Cl)c3N3CCC4(CCNC4=O)CC3)cc2)cn1 displays log10 GI50 of 1.05

According to the records, this compound Nc1ccc(Sc2ccc(NC(=O)Nc3cccc(C(F)(F)F)c3)cc2)cn1 displays log10 GI50 of 1.01

According to the records, this compound Nc1ccc(Oc2ccc(NC(=O)Nc3ccc(F)c(C(F)(F)F)c3)cc2)cn1 displays log10 GI50 of 0.87

According to the records, this compound O=C(Nc1cccc(Oc2cnc3[nH]ccc3c2)c1)Nc1cccc(C(F)(F)F)c1 displays log10 GI50 of 0.94

According to the records, this compound Nc1ccc(Oc2ccc(NC(=O)Nc3cccc(F)c3)cc2)cn1 displays log10 GI50 of 1.82

According to the records, this compound Nc1ccc(Oc2ccc(NC(=O)Nc3cccc(C(F)(F)F)c3)cc2)cn1 displays log10 GI50 of 0.74
